Recorded values, source ChEMBL document CHEMBL1150343.

# procedureSummary: Displacement of [3H]RX821002 from alpha2 adrenergic receptor in human brain prefrontal cortex tissue by liquid scintillation spectrometry
# Type: tissue-based
measuredParameter: pKi

[[record]]
compound = "c1ccc(Nc2ccc(NC3=NCCN3)cc2)cc1"
measuredparameter = "pKi"
numericresult = 6.56

[[record]]
compound = "Cc1ccc(NC2=NCCN2)cc1.Cl"
measuredparameter = "pKi"
numericresult = 7.82

[[record]]
compound = "N=C(N)Nc1ccc(Sc2ccccc2)cc1"
measuredparameter = "pKi"
numericresult = 6.3

[[record]]
compound = "c1cc2c(cc1NC1=NCCN1)OCO2"
measuredparameter = "pKi"
numericresult = 7.33

[[record]]
compound = "c1ccc(Sc2ccc(NC3=NCCN3)cc2)cc1"
measuredparameter = "pKi"
numericresult = 6.62

[[record]]
compound = "Cc1ccc(NC2=NCCN2)cc1C.Cl"
measuredparameter = "pKi"
numericresult = 7.68

[[record]]
compound = "Cl.N=C(N)Nc1ccc(Cc2ccccc2)cc1"
measuredparameter = "pKi"
numericresult = 6.38

[[record]]
compound = "Cl.c1ccc(NC2=NCCN2)cc1"
measuredparameter = "pKi"
numericresult = 6.48

[[record]]
compound = "Cc1ccc(NC(=N)N)cc1.Cl"
measuredparameter = "pKi"
numericresult = 6.53

[[record]]
compound = "Cl.N=C(N)Nc1ccc2c(c1)CCC2"
measuredparameter = "pKi"
numericresult = 6.51

[[record]]
compound = "c1cc(NC2=NCCN2)ccc1CCc1ccc(NC2=NCCN2)cc1"
measuredparameter = "pKi"
numericresult = 7.02

[[record]]
compound = "c1cc2c(cc1NC1=NCCN1)Cc1ccc(NC3=NCCN3)cc1C2"
measuredparameter = "pKi"
numericresult = 7.58

[[record]]
compound = "CSc1ccc(NC(=N)N)cc1"
measuredparameter = "pKi"
numericresult = 6.4

[[record]]
compound = "CCc1ccc(NC(=N)N)cc1.Cl"
measuredparameter = "pKi"
numericresult = 5.55

[[record]]
compound = "c1ccc(Oc2ccc(NC3=NCCN3)cc2)cc1"
measuredparameter = "pKi"
numericresult = 6.58

[[record]]
compound = "N=C(N)Nc1ccc(Nc2ccccc2)cc1"
measuredparameter = "pKi"
numericresult = 6.83

[[record]]
compound = "N=C(N)Nc1ccc(CCc2ccc(NC(=N)N)cc2)cc1"
measuredparameter = "pKi"
numericresult = 5.88

[[record]]
compound = "N=C(N)Nc1ccc(Oc2ccccc2)cc1"
measuredparameter = "pKi"
numericresult = 6.05

[[record]]
compound = "CSc1ccc(NC2=NCCN2)cc1"
measuredparameter = "pKi"
numericresult = 7.07

[[record]]
compound = "COC1(C2=NCCN2)COc2ccccc2O1 (centres undefined)"
measuredparameter = "pKi"
numericresult = 9.04

[[record]]
compound = "c1cc2c(cc1NC1=NCCN1)OCCO2"
measuredparameter = "pKi"
numericresult = 7.85

[[record]]
compound = "COc1ccc(NC(=N)N)cc1"
measuredparameter = "pKi"
numericresult = 6.39

[[record]]
compound = "Cl.c1ccc(Cc2ccc(NC3=NCCN3)cc2)cc1"
measuredparameter = "pKi"
numericresult = 6.85

[[record]]
compound = "Nc1ccc(NC2=NCCN2)cc1"
measuredparameter = "pKi"
numericresult = 6.92

[[record]]
compound = "Cl.N=C(N)Nc1ccccc1"
measuredparameter = "pKi"
numericresult = 6.19

[[record]]
compound = "c1cc2c(cc1NC1=NCCN1)Cc1cc(NC3=NCCN3)ccc1-2"
measuredparameter = "pKi"
numericresult = 6.32

[[record]]
compound = "Cl.c1cc2c(cc1NC1=NCCN1)CCC2"
measuredparameter = "pKi"
numericresult = 8.26

[[record]]
compound = "N=C(N)Nc1ccc2c(c1)OCCO2"
measuredparameter = "pKi"
numericresult = 8.21

[[record]]
compound = "Cl.N=C(N)Nc1ccc2c(c1)CCCC2"
measuredparameter = "pKi"
numericresult = 7.11


###

# procedureSummary: Displacement of [3H]RX821002 from alpha2 adrenergic receptor in human brain prefrontal cortex tissue by liquid scintillation spectrometry
# Type: tissue-based
measuredParameter: pKi

[[record]]
smilesinput = "COc1ccc(NC2=NCCN2)cc1"
numericresult = 7.77

[[record]]
smilesinput = "N=C(N)Nc1ccc(N)cc1"
numericresult = 5.58

[[record]]
smilesinput = "N=C(N)Nc1ccc2c(c1)Cc1ccc(NC(=N)N)cc1C2"
numericresult = 7.96

[[record]]
smilesinput = "CCc1ccc(NC2=NCCN2)cc1.Cl"
numericresult = 6.68

[[record]]
smilesinput = "Cl.c1cc2c(cc1NC1=NCCN1)CCCC2"
numericresult = 7.33

[[record]]
smilesinput = "N=C(N)Nc1ccc2c(c1)OCO2"
numericresult = 6.4

[[record]]
smilesinput = "N=C(N)Nc1ccc2c(c1)Cc1cc(NC(=N)N)ccc1-2"
numericresult = 6.12


###

# procedureSummary: Agonist activity at alpha2 adrenergic receptor in human brain prefrontal cortex tissue by [35S]GTPgamma S binding assay relative to UK-14304
# Format: functional
Reported Emax values for a set of molecules
Express your answer in %, writing the number without its unit.

Use these answered entries as a reference point.
[[record]]
smilesinput = "Cl.c1cc2c(cc1NC1=NCCN1)CCCC2"
measuredparameter = "Emax"
numericresult = 100

[[record]]
smilesinput = "Cl.c1cc2c(cc1NC1=NCCN1)CCC2"
measuredparameter = "Emax"
numericresult = 98

[[record]]
smilesinput = "Cc1ccc(NC2=NCCN2)cc1.Cl"
measuredparameter = "Emax"
numericresult = 97


Okay, now this molecule:
Give the measured Emax of Cc1ccc(NC2=NCCN2)cc1C.Cl . 89
